target: DR1 (DRB1*0101) (Homo sapiens, UniProt P01903+P01911, A100R/D57E/F55L/F60I/F76Y/I96L/L162R/M171V/P40L/Q125E/R42F/V115G/Y59C); assay: biochemical; assay type: binding
pIC50: −log10 of the molar value. No end group written: not given here.
QUANTITY_NAME: pIC50

> print(dat)
                          ordered.residues  cmp  result.number
 1       DRGIIILLLIRFRCS [Peptide 89.0062]    <           4.70
 2       EISFAGIVTKLPTAN [Peptide 89.0174]    =           4.73
 3       RGIIILLLIRFRCSK [Peptide 89.0063]    =           6.17
 4       KIGMIDDVTPISWTY [Peptide 90.0087]    =           5.49
 5       DFLNTVKIPNTVSVS [Peptide 1601.28]    =           6.11
 6       PEWIQRLTIIQHGID [Peptide 89.0031]    =           6.06
 7       YENDSTDLRDHIDYW [Peptide 1601.01]    <           4.70
 8       ENSIQADTEAARALF [Peptide 90.0078]    =           5.41
 9       ELQMALETLSKSQYS [Peptide 89.0183]    =           7.10
10       VEFMSFLTALKRFLQ [Peptide 89.0015]    =           7.72
11  KIFGSLAILPESFDGDPA [Peptide 9014.0248]    =           6.42
12       GRVNTHVHNPLLCSS [Peptide 1601.34]    =           6.06
13               RLTVSKLMSQLLNIP [89,0100]    =           4.98
14       SWGMVMLMLVRFKCA [Peptide 89.0044]    =           5.31
15       AKALQAIELQMMLET [Peptide 89.0171]    =           7.80
16       VTAIFGVNPTIAEGF [Peptide 89.0023]    =           5.94
17     DMKLRLLASPETHLD [Peptide 9014.0119]    =           7.92
18       ESVFSSDEISFAGIV [Peptide 90.0195]    =           5.62
19       RNLVDGNPISLDRKH [Peptide 89.0137]    =           4.95
20       EYILDLHPEPTDLFC [Peptide 1543.51]    =           6.72
21       NTEVETQQMLQVEGR [Peptide 89.0002]    =           5.30
22       FLDVVTIPNSVQISV [Peptide 1601.40]    =           6.26
23       LKTVKIPNTVQVIQG [Peptide 90.0017]    =           5.09
24  KIFGSLAWLPESFDGDPA [Peptide 9014.0252]    =           6.92
25       LKTIIKPHCMYYHMQ [Peptide 89.0119]    <           4.70
26     ETEAVEPLTPSGAMP [Peptide 9014.0141]    =           7.29
